The reported measurements were obtained from ChEMBL document CHEMBL4033668.

Target: Cytochrome P450 1B1 (Homo sapiens)
Experiment: Inhibition of CYP1B1 in TCDD-exposed human MCF-7 cells using ethoxyresorufin as substrate after 20 mins in presence of NADPH by Lineweaver-Burk linear regression plot analysis
Experimental endpoint: pKi
Give bare numbers, as −log10 of the molar value.

Consider the molecule `Br.Cc1ccc(C(=O)Cn2c3c(sc2=N)CCCC3)cc1` and give its measured pKi.
8.36

====

Target: CYP1B1 (Homo sapiens, UniProt Q16678)
Sequence (Q16678 whole entry): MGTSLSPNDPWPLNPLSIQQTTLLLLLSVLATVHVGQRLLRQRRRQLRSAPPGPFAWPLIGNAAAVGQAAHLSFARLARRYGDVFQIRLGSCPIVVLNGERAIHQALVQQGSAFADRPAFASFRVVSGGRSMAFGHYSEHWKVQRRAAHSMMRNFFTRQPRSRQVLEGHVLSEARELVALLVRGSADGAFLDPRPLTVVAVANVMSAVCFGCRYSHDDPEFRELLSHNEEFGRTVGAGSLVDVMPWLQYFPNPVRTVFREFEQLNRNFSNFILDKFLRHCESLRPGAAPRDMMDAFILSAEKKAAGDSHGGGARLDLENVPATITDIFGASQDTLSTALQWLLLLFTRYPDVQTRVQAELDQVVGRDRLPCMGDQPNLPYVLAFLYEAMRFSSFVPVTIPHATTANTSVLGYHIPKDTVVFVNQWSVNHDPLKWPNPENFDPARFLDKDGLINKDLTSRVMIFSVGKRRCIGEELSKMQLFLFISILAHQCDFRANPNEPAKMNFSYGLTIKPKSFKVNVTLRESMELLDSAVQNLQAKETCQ
Assay: Inhibition of CYP1B1 (unknown origin) expressed in Escherichia coli DH5alpha coexpressing human NADPH P450 reductase using 7-ethoxyresorufin as substrate after 2 to 6 mins in presence of NADPH by double reciprocal plot analysis
Settings: human, probe 7-ethoxyresorufin
Experimental endpoint: kinact (s⁻¹)
Answers are plain numbers, in s⁻¹.

Consider the compound `CC#Cc1ccc(-c2ccccc2)cc1` and give its measured kinact.
0.000667

====

Biological target: Cytochrome P450 1A1 (Homo sapiens)
Sequence (P04798 whole entry): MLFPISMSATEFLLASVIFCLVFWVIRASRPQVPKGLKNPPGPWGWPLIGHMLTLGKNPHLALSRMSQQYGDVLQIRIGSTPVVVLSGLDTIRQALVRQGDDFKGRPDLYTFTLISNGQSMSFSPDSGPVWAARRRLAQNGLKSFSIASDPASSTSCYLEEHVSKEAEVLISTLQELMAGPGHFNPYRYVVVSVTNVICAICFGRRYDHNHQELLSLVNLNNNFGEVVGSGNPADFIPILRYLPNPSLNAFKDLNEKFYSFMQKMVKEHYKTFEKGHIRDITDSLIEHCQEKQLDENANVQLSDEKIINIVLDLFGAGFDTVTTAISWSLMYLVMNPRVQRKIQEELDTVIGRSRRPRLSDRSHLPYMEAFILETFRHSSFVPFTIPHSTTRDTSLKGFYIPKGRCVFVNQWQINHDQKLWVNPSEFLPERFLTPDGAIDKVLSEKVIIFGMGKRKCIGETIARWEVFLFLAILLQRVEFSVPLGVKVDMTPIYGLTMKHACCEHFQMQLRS
Assay: Inhibition of recombinant human CYP1A1 expressed in supersomes coexpressing NADPH-CYP reductase using 7-ethoxyresorufin as substrate after 15 mins in presence of NADP+ by Lineweaver-Burk plot analysis
Type: ADME
Experimental endpoint: pKi
One number for each entry, as −log10 of the molar value.

Tell me reported pKi for `COc1cc(O)cc(/C=C/c2ccc(O)cc2)c1` , tested with Cytochrome P450 1A1 (Homo sapiens).
6.89

====

Biological target: Cytochrome P450 1B1 (Homo sapiens, UniProt Q16678)
Assay: Inhibition of human CYP1B1 expressed in Escherichia coli DH5alpha coexpressing human NADPH-P450 reductase using 4-estradiol as substrate in presence of NADP+ by HPLC analysis
Task for the reader: assign each of the following compounds its reported IC50.
Give bare numbers, in µM.

// input: 3 compounds below; output: IC50 for each
1. COc1ccc2cc3[n+](cc2c1OC)CCc1cc(O)c(O)cc1-3
2. COc1c(O)ccc2cc3[n+](cc12)CCc1cc2c(cc1-3)OCO2
3. COc1ccc2cc3[n+](cc2c1OC)CCc1cc2c(cc1-3)OCO2

1: 9.9; 2: 4.1; 3: 0.33

====

Target: Cytochrome P450 1B1 (Homo sapiens, UniProt Q16678)
Assay: Inhibition of recombinant human CYP1B1 expressed in supersomes using ethoxyresorufin as substrate after 20 mins in presence of NADPH by fluorescence assay
Experimental endpoint: Ki (nM)
Answers are plain numbers, in nM.

Consider the compound C=C(C)C1CC=C(CO)CC1 (stereo unspecified) and give its measured Ki.
2000
